- Tested on: CD8+ T cells of healthy HLA-A*02 donors
- assay_name: In vitro immunogenicity: T-cell priming with aAPCs loaded with peptide/MHC and anti-CD28, pMHC multimer readout
- Type: cell-based, human
- reported_conditions: in vitro immunogenicity, HLA-A*02 restricted peptides; percentage of positive wells among evaluable
recorded_endpoint: Wells positive [%]

| substance | measured_value |
| --- | --- |
| 242 (KLQEEIPVL; listed as Homo sapiens) [compound 242] | + (<20% = +) |
| 260 (ALNESLVEC; listed as Homo sapiens) [compound 260] | + (<20% = +) |
| 261 (GLAALAVHL; listed as Homo sapiens) [compound 261] | ++ (20%-49% = ++) |
| 257 (KLIDHQGLYL; listed as Homo sapiens) [compound 257] | + (<20% = +) |
| 101 (SLLEVNEASSV; listed as Homo sapiens) [compound 101] | + (<20% = +) |

Prompt: Identify the reported Wells positive [%] for the following entry. 236 (KMSELQTYV; listed as Homo sapiens) [compound 236]
Response: + (<20% = +)

Prompt: Identify the reported Wells positive [%] for the following entry. 166 (LLGDSSFFL; listed as Homo sapiens) [compound 166]
Response: ++ (20%-49% = ++)
